Please respond with reported MBC for every item in the list.
# System: S. aureus (ATCC 29213)
# experiment description: MIC and MBC, broth dilution, S. aureus ATCC 29213
# Format: cell-based
# condition description: Staphylococcus aureus, ATCC29213
Numbers only, in µg/mL.

Use the examples below as a reference point.
C=C[C@]1(C)C[C@@H](OC(=O)CNCc2cccc(F)c2)[C@]2(C)[C@H](C)CC[C@]3(CCC(=O)[C@H]32)[C@@H](C)[C@@H]1O
8
C=C[C@]1(C)C[C@@H](OC(=O)CSCCN(CC)CC)[C@]2(C)[C@H](C)CC[C@]3(CCC(=O)[C@H]32)[C@@H](C)[C@@H]1O [Tiamulin, tiamulin, reference compound]
1
C=C[C@]1(C)C[C@@H](OC(=O)CNCCS(C)(=O)=O)[C@]2(C)[C@H](C)CC[C@]3(CCC(=O)[C@H]32)[C@@H](C)[C@@H]1O
2
C=C[C@]1(C)C[C@@H](OC(=O)CNCCc2cccs2)[C@]2(C)[C@H](C)CC[C@]3(CCC(=O)[C@H]32)[C@@H](C)[C@@H]1O
2

With those in mind, consider the next compound.
Return the recorded MBC value; entry: "C=C[C@]1(C)C[C@@H](OC(=O)CN2CCOCC2)[C@]2(C)[C@H](C)CC[C@]3(CCC(=O)[C@H]32)[C@@H](C)[C@@H]1O"
2

====

# Test system: S. aureus (AD3)
# experiment description: MIC and MBC, broth dilution, S. aureus AD3
# Assay type: cell-based
# condition description: Staphylococcus aureus; S. aureus AD3 (clinical strain)
MBC under 4 µg/mL gets condition met, anything at or over 4 µg/mL gets condition not met.

C=C[C@]1(C)C[C@@H](OC(=O)CNCCCC)[C@]2(C)[C@H](C)CC[C@]3(CCC(=O)[C@H]32)[C@@H](C)[C@@H]1O [Compound 21, 22-Butylamineyl-22-deoxypleuromutilin]
condition not met

Next item in the queue.
Criterion: MBC strictly below 4 µg/mL. Is it met by C=C[C@]1(C)C[C@@H](OC(=O)CNCc2ccc(F)cc2)[C@]2(C)[C@H](C)CC[C@]3(CCC(=O)[C@H]32)[C@@H](C)[C@@H]1O [Compound 16] ?
condition not met

====

# Tested on: 50S ribosome
# experiment description: SPR interaction and affinity analysis
# Type: binding, S. aureus ATCC 43300
# condition description: 4 °C, 1:1 Langmuir binding
# Experimental: S. aureus ATCC 43300 was used to prepare the 50S ribosomal subunit the same way as described previously. Cells were grown overnight in Brain Heart Infusion broth at 37 °C and harvested for 1.5 h at an OD600. […] The solution was layered on a sucrose cushion of 15 mL (10 mM Hepes-KOH pH 7.5, 25 mM Mg(OAc)2, 500 mM KCl, […], 1 mM DTT, 0.5 mM EDTA). […] The gradient was analyzed on the AKTA explorer system (Amersham, UK). […]
measured metric: Avg kd (s⁻¹)
Numbers only, in s⁻¹.

Please review the entries below; each comes with its answer.
C=C[C@]1(C)C[C@@H](OC(=O)CSCCN(CC)CC)[C@]2(C)[C@H](C)CC[C@]3(CCC(=O)[C@H]32)[C@@H](C)[C@@H]1O [Tiamulin, tiamulin, reference compound]
3.03e-06
C=C[C@]1(C)C[C@@H](OC(=O)CNCCS(C)(=O)=O)[C@]2(C)[C@H](C)CC[C@]3(CCC(=O)[C@H]32)[C@@H](C)[C@@H]1O
0.00833
C=C[C@]1(C)C[C@@H](OC(=O)CNCCCCCCCCCCCC)[C@]2(C)[C@H](C)CC[C@]3(CCC(=O)[C@H]32)[C@@H](C)[C@@H]1O
0.0011

I have 7 molecules here; please give me Avg kd for each one.
1. C=C[C@]1(C)C[C@@H](OC(=O)CNc2ccc(F)cc2)[C@]2(C)[C@H](C)CC[C@]3(CCC(=O)[C@H]32)[C@@H](C)[C@@H]1O
2. C=C[C@]1(C)C[C@@H](OC(=O)CN2CCSCC2)[C@]2(C)[C@H](C)CC[C@]3(CCC(=O)[C@H]32)[C@@H](C)[C@@H]1O
3. C=C[C@]1(C)C[C@@H](OC(=O)CNCCCCCCCC)[C@]2(C)[C@H](C)CC[C@]3(CCC(=O)[C@H]32)[C@@H](C)[C@@H]1O
4. C=C[C@]1(C)C[C@@H](OC(=O)CNc2ccc(Br)cc2)[C@]2(C)[C@H](C)CC[C@]3(CCC(=O)[C@H]32)[C@@H](C)[C@@H]1O
5. C=C[C@]1(C)C[C@@H](OC(=O)CNCCc2ccccc2)[C@]2(C)[C@H](C)CC[C@]3(CCC(=O)[C@H]32)[C@@H](C)[C@@H]1O
6. C=C[C@]1(C)C[C@@H](OC(=O)CN2CCOCC2)[C@]2(C)[C@H](C)CC[C@]3(CCC(=O)[C@H]32)[C@@H](C)[C@@H]1O
7. C=C[C@]1(C)C[C@@H](OC(=O)CNC23CC4CC(CC(C4)C2)C3)[C@]2(C)[C@H](C)CC[C@]3(CCC(=O)[C@H]32)[C@@H](C)[C@@H]1O

["7.39e-06", 0.00021, 0.00073, 0.197, 0.00963, 0.872, 0.0215]

Give Avg kd for all molecules that follow.
1. C=C[C@]1(C)C[C@@H](OC(=O)CNCCCCCCCCCCCCCCCC)[C@]2(C)[C@H](C)CC[C@]3(CCC(=O)[C@H]32)[C@@H](C)[C@@H]1O
2. C=C[C@]1(C)C[C@@H](OC(=O)CNc2ccc(Cl)cc2)[C@]2(C)[C@H](C)CC[C@]3(CCC(=O)[C@H]32)[C@@H](C)[C@@H]1O

[0.0375, 0.0019]

====

# Test system: S. aureus (AD3)
# experiment description: MIC and MBC, broth dilution, S. aureus AD3
# Assay type: cell-based
# condition description: Staphylococcus aureus; S. aureus AD3 (clinical strain)
# label = YES if MBC < 1 µg/mL else NO

Observe how each entry below is paired with its result.
C=C[C@]1(C)C[C@@H](OC(=O)CNCCCCCCCCCCCC)[C@]2(C)[C@H](C)CC[C@]3(CCC(=O)[C@H]32)[C@@H](C)[C@@H]1O
NO
C=C[C@]1(C)C[C@@H](OC(=O)CNCCc2ccccc2C)[C@]2(C)[C@H](C)CC[C@]3(CCC(=O)[C@H]32)[C@@H](C)[C@@H]1O
NO
C=C[C@]1(C)C[C@@H](OC(=O)CNc2cccc(Cl)c2)[C@]2(C)[C@H](C)CC[C@]3(CCC(=O)[C@H]32)[C@@H](C)[C@@H]1O
YES
C=C[C@]1(C)C[C@@H](OC(=O)CN2CCOCC2)[C@]2(C)[C@H](C)CC[C@]3(CCC(=O)[C@H]32)[C@@H](C)[C@@H]1O
NO
C=C[C@]1(C)C[C@@H](OC(=O)CNCCCCCCCC)[C@]2(C)[C@H](C)CC[C@]3(CCC(=O)[C@H]32)[C@@H](C)[C@@H]1O
NO
C=C[C@]1(C)C[C@@H](OC(=O)CNc2cccc(F)c2)[C@]2(C)[C@H](C)CC[C@]3(CCC(=O)[C@H]32)[C@@H](C)[C@@H]1O
YES

Next compound, please.
Lab note: confirm whether the reported MBC for this compound is below 1 µg/mL, equality not counting. compound: "C=C[C@]1(C)C[C@@H](OC(=O)CNCCO)[C@]2(C)[C@H](C)CC[C@]3(CCC(=O)[C@H]32)[C@@H](C)[C@@H]1O"
NO

====

# assayed system: 50S ribosome
# experiment description: SPR interaction and affinity analysis
# condition description: 4 °C, KD = Kd/Ka
Exercise: state measured pKd for each of the compounds provided.
Numbers only, as −log10 of the molar value.

C=C[C@]1(C)C[C@@H](OC(=O)CSCCN(CC)CC)[C@]2(C)[C@H](C)CC[C@]3(CCC(=O)[C@H]32)[C@@H](C)[C@@H]1O [Tiamulin, tiamulin, reference compound]
7.60
C=C[C@]1(C)C[C@@H](OC(=O)CNCCCc2ccccc2)[C@]2(C)[C@H](C)CC[C@]3(CCC(=O)[C@H]32)[C@@H](C)[C@@H]1O
6.82
C=C[C@]1(C)C[C@@H](OC(=O)CNC23CC4CC(CC(C4)C2)C3)[C@]2(C)[C@H](C)CC[C@]3(CCC(=O)[C@H]32)[C@@H](C)[C@@H]1O
2.53
C=C[C@]1(C)C[C@@H](OC(=O)CNCCc2ccccc2C)[C@]2(C)[C@H](C)CC[C@]3(CCC(=O)[C@H]32)[C@@H](C)[C@@H]1O
4.48

Hello, I would appreciate it if you could give pKd for each entry below.
1. C=C[C@]1(C)C[C@@H](OC(=O)CNc2ccc(Br)cc2)[C@]2(C)[C@H](C)CC[C@]3(CCC(=O)[C@H]32)[C@@H](C)[C@@H]1O
2. C=C[C@]1(C)C[C@@H](OC(=O)CNCCCCCCCCCCCCCCCC)[C@]2(C)[C@H](C)CC[C@]3(CCC(=O)[C@H]32)[C@@H](C)[C@@H]1O
3. C=C[C@]1(C)C[C@@H](OC(=O)CNCc2cccc(F)c2)[C@]2(C)[C@H](C)CC[C@]3(CCC(=O)[C@H]32)[C@@H](C)[C@@H]1O
4. C=C[C@]1(C)C[C@@H](OC(=O)CNCCc2cccs2)[C@]2(C)[C@H](C)CC[C@]3(CCC(=O)[C@H]32)[C@@H](C)[C@@H]1O
5. C=C[C@]1(C)C[C@@H](OC(=O)CNc2ccc(F)cc2)[C@]2(C)[C@H](C)CC[C@]3(CCC(=O)[C@H]32)[C@@H](C)[C@@H]1O
6. C=C[C@]1(C)C[C@@H](OC(=O)CNc2cccc(Cl)c2)[C@]2(C)[C@H](C)CC[C@]3(CCC(=O)[C@H]32)[C@@H](C)[C@@H]1O
7. C=C[C@]1(C)C[C@@H](OC(=O)CNCc2ccccc2F)[C@]2(C)[C@H](C)CC[C@]3(CCC(=O)[C@H]32)[C@@H](C)[C@@H]1O

1. 2.20
2. 3.00
3. 5.66
4. 4.50
5. 7.75
6. 4.59
7. 3.37

# credit: paper PMC8838415
